- System: APOL1
- Run Parameters: ASO, A431, 0.25 µM
After the bases stand the sugars from the 5' end (letter, count) and the backbone: PS all phosphorothioate, else s phosphorothioate and o phosphodiester by linkage. Methylation of C is not given here. e = 2'-O-(2-methoxyethyl) (MOE); k = constrained ethyl (cEt); d = 2'-deoxy (DNA)
Value Kind: target mRNA inhibition (%)
Numbers only, in %.

* GTAAGTGCTTTGATTC (sugars k4 d9 k3, PS) | 83
* TGAGTATTGTTTTTGT (sugars k3 d4 k3 e1 d5, PS) | 88
* GAATTATGGAATTGCA (sugars kkdddddkekeddddd, PS) | 75
* GAGTATTGTTTTTGTG (sugars k2 d4 e3 k2 d5, PS) | 91
* TTTTGTAAGTGCAACC (sugars kkkddddkekeddddd, PS) | 89
* CCTTACTGCAGTTTCA (sugars k4 d9 k3, PS) | 79

For every listed record, write down its target mRNA inhibition.
1. GATGGGTACTTCTGTT (sugars k4 d9 k3, PS)
2. GGGTCAAAAGCGATGG (sugars k4 d9 k3, PS)
3. TGAGTATTGTTTTTGT (sugars kkkddddkekeddddd, PS)
4. TTTAGAAAGGACACGG (sugars k4 d9 k3, PS)
5. GGAATTATGGAATTGC (sugars k2 d4 e3 k2 d5, PS)

82
79
74
73
84

---

- System: HTRA1
- Run Parameters: ASO, U251, 5 µM
After the bases stand the sugars from the 5' end (letter, count) and the backbone: PS all phosphorothioate, else s phosphorothioate and o phosphodiester by linkage. Methylation of C is not given here. l = locked nucleic acid (LNA); d = 2'-deoxy (DNA)
Field: class. Source value: target mRNA inhibition. Ranges: class 1 (below 60%), class 2 (60% to below 80%), class 3 (80% or more)

Study these solved cases before continuing.
• TGTATCGACTGCATTAG (sugars l2 d11 l4, PS) = class 2
• ACTCAGTTAAAGGAGGAGAC (sugars l4 d14 l2, PS) = class 1
• CTTCTTCTATCTACGC (sugars l2 d10 l4, PS) = class 3

Exam item: assign CAATGTGTAAGAAGTA (sugars l3 d10 l3, PS) to the correct category. class 2

Exam item: assign TAAGAAGTACTTTAATAGCT (sugars l3 d13 l4, PS) to the correct category. class 1

Exam item: assign CTATCTACGCATTGTAT (sugars l3 d10 l4, PS) to the correct category. class 2

Exam item: assign TTCTTCTATCTACGCATTGT (sugars l1 d17 l2, PS) to the correct category. class 1

Exam item: assign ACGCATTGTATCGACT (sugars l4 d8 l4, PS) to the correct category. class 3

Exam item: assign TATCTACGCATTGTATCGA (sugars l2 d14 l3, PS) to the correct category. class 1

---

- System: HTRA1
- Run Parameters: ASO, U251, 5 µM
After the bases stand the sugars from the 5' end (letter, count) and the backbone: PS all phosphorothioate, else s phosphorothioate and o phosphodiester by linkage. Methylation of C is not given here. l = locked nucleic acid (LNA); d = 2'-deoxy (DNA)
Could you please report measured target mRNA inhibition for the items listed next?
Numbers only, in %.

Previously resolved entries follow.
• TACGCATTGTATCGAC (sugars l3 d10 l3, PS) = 94
• AAGAAGTACTTTAATAGCTC (sugars l4 d13 l3, PS) = 86
• GTATCGACTGCATTAG (sugars l3 d10 l3, PS) = 98

For every listed record, write down its target mRNA inhibition.
1. AATGTGTAAGAAGTACTTT (sugars l4 d11 l4, PS)
2. AGTTAAAGGAGGAGACAAAT (sugars l4 d12 l4, PS)

1. 57
2. 44

---

- System: DGAT2
- Run Parameters: ASO, HepG2, 0.12 µM
After the bases stand the sugars from the 5' end (letter, count) and the backbone: PS all phosphorothioate, else s phosphorothioate and o phosphodiester by linkage. Methylation of C is not given here. e = 2'-O-(2-methoxyethyl) (MOE); d = 2'-deoxy (DNA)
// label = 1 (yes) if target mRNA inhibition is not less than 40%, otherwise 0 (no)

Study these solved cases before continuing.
• GATTTGTACTTGAATCCAGG (sugars e5 d10 e5, PS) = 0 (no)
• AGGCATGGAGCTCAGAGACT (sugars e3 d14 e3, PS) = 1 (yes)
• TTCGGACCCACTGTGACCTC (sugars e3 d14 e3, PS) = 1 (yes)
• CCAGCTGGATGGGAAAGTAG (sugars e5 d10 e5, PS) = 0 (no)
• GGTCAGCCTCGGCCTGACGC (sugars e5 d10 e5, PS) = 0 (no)

# bool: target mRNA inhibition of GTCATCCAGTATAGCCTAAT (sugars e5 d10 e5, PS) >= 40% 1 (yes)

# bool: target mRNA inhibition of CCAGGGCCTCCATGTACATG (sugars e2 d13 e5, PS) >= 40% 1 (yes)

# bool: target mRNA inhibition of TAGCTCATGGTGGCGGCATC (sugars e5 d10 e5, PS) >= 40% 0 (no)

# bool: target mRNA inhibition of TGGATACTCAGAAGAGCAGT (sugars e5 d10 e5, PS) >= 40% 0 (no)

# bool: target mRNA inhibition of AGAGCTTCACCAGGGCCTCC (sugars e5 d10 e5, PS) >= 40% 1 (yes)

---

- System: APOL1
- Run Parameters: ASO, A431, 0.0625 µM
After the bases stand the sugars from the 5' end (letter, count) and the backbone: PS all phosphorothioate, else s phosphorothioate and o phosphodiester by linkage. Methylation of C is not given here. e = 2'-O-(2-methoxyethyl) (MOE); k = constrained ethyl (cEt); d = 2'-deoxy (DNA)
// label = yes if target mRNA inhibition is not less than 40%, otherwise no

Study these solved cases before continuing.
- GTTATGAAATTATTGG (sugars k3 d4 k3 e1 d5, PS): yes
- GGGTCAAAAGCGATGG (sugars k4 d9 k3, PS): yes
- GGAATTATGGAATTGC (sugars k2 d4 e3 k2 d5, PS): no
- GAATTATGGAATTGCA (sugars kkdddddkekeddddd, PS): no
- CCTTAATGTAAATTCC (sugars k4 d9 k3, PS): no

# bool: target mRNA inhibition of GAGTATTGTTTTTGTG (sugars k2 d4 e3 k2 d5, PS) >= 40% yes

# bool: target mRNA inhibition of CGTCAATATATTCTTT (sugars kddddkekekeddddd, PS) >= 40% yes

# bool: target mRNA inhibition of CACTTTACATGCACGA (sugars k4 d9 k3, PS) >= 40% no

# bool: target mRNA inhibition of TGAGTATTGTTTTTGT (sugars kkkddddkekeddddd, PS) >= 40% yes

# bool: target mRNA inhibition of TTTAGAAAGGACACGG (sugars k4 d9 k3, PS) >= 40% yes

# bool: target mRNA inhibition of ATTCTGTGTGCTCACT (sugars k4 d9 k3, PS) >= 40% yes

---

- System: KRAS
- Run Parameters: ASO, A431, 5 µM
After the bases stand the sugars from the 5' end (letter, count) and the backbone: PS all phosphorothioate, else s phosphorothioate and o phosphodiester by linkage. Methylation of C is not given here. e = 2'-O-(2-methoxyethyl) (MOE); k = constrained ethyl (cEt); d = 2'-deoxy (DNA)
Could you please report measured target mRNA inhibition for the items listed next?
Answers are plain numbers, in %.

Previously resolved entries follow.
* ATGGTGTAACATAGGT (sugars kkddddddddddkeke, PS) | 69
* GTTTATGCAATGTTAA (sugars kkddddddddkekekk, PS) | 79
* GGAGTCTTTATAGTAA (sugars kkddddddddddkeke, PS) | 82

Lookup: target mRNA inhibition / KRAS / GGTGTAACATAGGTTA (sugars k3 d10 k3, PS) 67

---

- System: IRF5
- Run Parameters: ASO, KARPAS-229, 0.44444 µM
After the bases stand the sugars from the 5' end (letter, count) and the backbone: PS all phosphorothioate, else s phosphorothioate and o phosphodiester by linkage. Methylation of C is not given here. e = 2'-O-(2-methoxyethyl) (MOE); k = constrained ethyl (cEt); d = 2'-deoxy (DNA)
Field: class. Source value: target mRNA inhibition. Ranges: lower range: < 20%; middle range: ≥ 20% and < 40%; upper range: ≥ 40%

Study these solved cases before continuing.
- CCATTCTATGCCTTTT (sugars kkddddddddddkeke, PS): middle range
- GTCTTGACCTCCCGCT (sugars k2 d9 e3 k2, PS): middle range
- GGTTCTTGGACTCTCA (sugars k2 d8 e4 k2, PS): middle range
- TTATTTCTGCTCCAGG (sugars k3 d10 k3, PS): upper range
- AGCTTGGTCTTGACCT (sugars k3 d10 k3, PS): middle range
- GGTTCTTGGACTCTCA (sugars k2 d9 e3 k2, PS): upper range
- ACCACTGTGTACCCCA (sugars kkddddddddddkeke, PS): middle range
- AGGAGTGAGACGAGCA (sugars k3 d10 k3, PS): lower range

Exam item: assign TGAATTTTGTGACTGT (sugars k3 d10 k3, PS) to the correct category. middle range

Exam item: assign GTGAGACGAGCAAAGG (sugars k3 d10 k3, PS) to the correct category. upper range

Exam item: assign CCAATTTTGCATTCCA (sugars k3 d10 k3, PS) to the correct category. upper range

Exam item: assign GTGAGTCTCAAACCAG (sugars k3 d9 k3 e1, PS) to the correct category. middle range

Exam item: assign GTGACTGTATTACCTA (sugars k3 d10 k3, PS) to the correct category. lower range
